protocol_summary: Viability qHTS for spleen associated tyrosine kinase inhibitor (SYKi) drug resistant MV4-11 cells (AID 1963824); further: nearly all actives have a fitted effect of over 35% in size
condition_info: SYKi-resistant MV4-11 viability, CellTiter-Glo, 72 h; series mostly up to 45 µM
Records with an inconclusive call do not appear. Calls of active or inactive are those of the source. The call rests on the fitted dose curve; in most records, active means well fitted cell-killing curve with a large enough effect; inconclusive means small, poorly fitted or top-dose-only effect, or effect the other way; inactive means no such curve, though single readings can be large or run the other way.
Would you mind answering with one of these outcomes? active, inactive

For O=C(CS(=O)Cc1ccco1)NC/C=C\COc1cc(CN2CCCCC2)ccn1 (stereo not given) , which call appears in the assay record?
inactive

And `CCNCCc1ccc(CN(CC)c2cc(OC)ccc2[C@@H]2CCc3cc(O)ccc3C2)cc1` ?
active

Moving on to the next molecule: `CC(C)S(=O)(=O)c1ccc2nccc(Nc3ccc4scnc4c3)c2c1`
active

Entry to check: CC1(C)C2CCC1(C)C(OC(=O)C(O)(CC(=O)O)CC(=O)O)C2 (stereo not given)
inactive

What do you get for `O=C(/C=C/c1ccc(O)cc1)OC[C@@]1(O)C=C[C@@H]2C(C(=O)O)=CO[C@@H](O[C@@H]3O[C@H](CO)[C@@H](O)[C@H](O)[C@H]3O)[C@@H]21` ?
inactive

And the next one, `OCCN1C[C@H](O)[C@@H](O)[C@H](O)[C@H]1CO` ?
inactive

Follow-up entry: CC(=O)N(CC(O)CO)c1c(I)c(C(=O)NCCO)c(I)c(C(=O)NCC(O)CO)c1I (stereo not given)
inactive

Then this molecule: `CC(C)[C@@H]1CC[C@@H](C)CC1=O`
inactive

And the next one, `CC1(C)O[C@@H]2C[C@H]3[C@@H]4CCC5=CC(=O)C=C[C@]5(C)[C@@]4(F)[C@@H](O)C[C@]3(C)[C@]2(C(=O)CO)O1` ?
active

Again, but for `O=C(/C=C\n1cnc(-c2cc(C(F)(F)F)cc(C(F)(F)F)c2)n1)NNc1ccccn1`
active

Now consider CC1(C)CC[C@]23CO[C@@]4(CCC5[C@@]6(C)CC[C@H](O[C@@H]7OC[C@H](O[C@@H]8O[C@H](CO)[C@@H](O)[C@H](O)[C@H]8O)[C@H](O)[C@H]7O[C@@H]7O[C@H](CO)[C@@H](O[C@@H]8O[C@H](CO)[C@@H](O)[C@H](O)[C@H]8O)[C@H](O)[C@H]7O)[C@@](C)(CO)C6CC[C@@]5(C)[C@]4(C)C[C@H]2OC2OCC(O)C(O)C2O)C3C1 (stereo not given in full) and answer again.
active

Please answer likewise for `CC(C)[C@@H](c1ccc(C(F)(F)F)cc1CN(Cc1cc(C(F)(F)F)cc(C(F)(F)F)c1)c1nnn(C)n1)N1CCC(C(=O)O)CC1`
active

Okay, and `Nc1c2c(nc3c1CCC3)CCCC2` ?
inactive

Let us now turn to `CC(=O)OC[C@@]12[C@@H](OC(C)=O)C[C@@H](C)[C@](C)([C@@H]3C[C@H]4C=CO[C@H]4O3)[C@H]1CCC[C@]21CO1`
inactive

Note, next up: `CC(C)[C@@H](C)/C=C/[C@@H](C)[C@H]1CC[C@H]2C3=CC=C4C[C@@H](O)CC[C@]4(C)[C@H]3CC[C@]12C`
inactive
